Biological target: human PD1 on cells (human, UniProt Q15116 25-288)
Sequence (Q15116 25-288 limits assumed): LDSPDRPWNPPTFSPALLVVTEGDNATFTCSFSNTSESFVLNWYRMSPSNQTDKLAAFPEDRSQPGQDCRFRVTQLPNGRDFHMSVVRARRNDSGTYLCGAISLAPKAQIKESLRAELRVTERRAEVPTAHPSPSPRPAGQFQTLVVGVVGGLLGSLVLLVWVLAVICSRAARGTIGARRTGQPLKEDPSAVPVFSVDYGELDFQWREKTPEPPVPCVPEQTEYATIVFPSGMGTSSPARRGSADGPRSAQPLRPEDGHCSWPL
Experiment: cell-based or functional assay
Listed here are binders together with their documented PD1 blocking activity (reporter assay) Fold induction.
reported endpoint: PD1 blocking activity (reporter assay) Fold induction

# binder, recorded value
measured = [
    ("P-1181 (antibody, human IgG1, kappa, V domains shown) VH: EVQLLESGGGLVQPGGSLRLSCAASGFTFTNYYMYWVRQAPGKGLEWVSGINPSNGGTNFNDSVKGRFTISRDNSKNTLYLQMNSLRAEDTAVYYCARRDYRFDMGFDYWGQGTLVTVSS VL: EIVLTQSPATLSLSPGERATLSCRASKGVSTSGYSYLHWYQQKPGQAPRLLIYLASYLESGVPARFSGSGSGTDFTLTISSLEPEDFAVYYCQHSRDLPLTFGGGTKVEIKR", "3.26 fold"),
    ("P-1177 (antibody, human IgG1, kappa, V domains shown) VH: EVQLLESGGGLVQPGGSLRLSCAASGFTFTNYYMYWVRQAPGKGLEWMGGINPSNGGTNYADKFKGRFTISRDNSKNTLYLQMNSLRAEDTAVYYCARRDYRFDMGFDYWGQGTLVTVSS VL: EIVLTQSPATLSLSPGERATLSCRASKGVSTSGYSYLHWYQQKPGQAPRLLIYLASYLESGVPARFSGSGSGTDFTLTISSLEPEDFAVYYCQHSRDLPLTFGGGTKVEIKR", "4.77 fold"),
]
